The measured values listed here are drawn from patent US6608004B2.

Let's look at some compounds and their measured chromatographic logP.
# PROTOCOL DESCRIPTION: logP determination by HPLC, reversed-phase column (C 18), EEC Directive 79/831 Annex V.A8
# TEST CONTEXT: reversed-phase HPLC column (C 18), pH 2

>  <STRUCTURE>
C=CC(=O)N(c1cc(-n2ncc(=O)n(C)c2=O)c(F)cc1C#N)S(=O)(=O)CC

>  <chromatographic logP>
1.97

$$$$
>  <STRUCTURE>
CCS(=O)(=O)Nc1cc(-n2ncc(=O)n(C)c2=O)c(F)cc1C#N

>  <chromatographic logP>
1.66

$$$$

----------
# PROTOCOL DESCRIPTION: logP determination by HPLC, reversed-phase column (C 18), EEC Directive 79/831 Annex V.A8
# TEST CONTEXT: pH 2

>  <COMPOUND>
CCS(=O)(=O)N(C(=O)Oc1ccccc1)c1cc(-n2ncc(=O)n(C)c2=O)c(F)cc1C#N [Example 1]

>  <chromatographic logP>
2.76

$$$$
